System: Gaeumannomyces graminis var. tritici (Ggt)
Experiment: In vitro Assay: mycelial growth of Ggt on minimal media agar plates containing test compound
Format: cell-based
Conditions: Gaeumannomyces graminis; 1 ppm in minimal media agar; dark, 19-20° C., 4 to 5 days; diameter of mycelial growth; read-out: In vitro (ppm) 1, Percent Inhibition
inhibition at 1 ppm below 60% gives Criterion not met; inhibition at 1 ppm at or above it gives Criterion met.

>  <Compound>
CCN(CSC)C(=O)c1c(Cl)cccc1[Si](C)(C)C [Example 279]

>  <Discrete label>
Criterion not met

$$$$
>  <Compound>
CCCN(CCC)C(=O)c1c(Cl)cccc1[Si](C)(C)C [Example 36]

>  <Discrete label>
Criterion met

$$$$
>  <Compound>
CCNC(=O)c1sc(C)cc1[Si](C)(C)C [Example 256]

>  <Discrete label>
Criterion not met

$$$$
>  <Compound>
CCNC(=O)c1sc([Si](C)(C)C)cc1[Si](C)(C)C [Example 249]

>  <Discrete label>
Criterion not met

$$$$
>  <Compound>
CCN(CC)C(=O)c1c(Cl)cccc1[Si](C)(C)CCl [Example 69]

>  <Discrete label>
Criterion met

$$$$
>  <Compound>
CCN(CC)C(=O)c1c(Br)ccc(F)c1[Si](C)(C)C [Example 37]

>  <Discrete label>
Criterion met

$$$$
>  <Compound>
CCNC(=O)c1sc(SC)cc1[Si](C)(C)C [Example 261]

>  <Discrete label>
Criterion not met

$$$$
>  <Compound>
CCNC(=O)c1c([Si](C)(C)C)ccc(CF)c1Cl [Example 228]

>  <Discrete label>
Criterion met

$$$$
>  <Compound>
CCN(CC=CC#CC(C)(C)C)C(=O)c1c(Cl)cccc1[Si](C)(C)C [Example 104]

>  <Discrete label>
Criterion not met

$$$$
>  <Compound>
CC(C)CSC(=O)c1c(Cl)cccc1[Si](C)(C)C [Example 81]

>  <Discrete label>
Criterion not met

$$$$
>  <Compound>
CCCSC(=O)c1c(Cl)cccc1[Si](C)(C)C [Example 79]

>  <Discrete label>
Criterion not met

$$$$
>  <Compound>
C[Si](C)(C)c1cccc(Cl)c1C(=O)NC(c1ccccc1)n1nnc2ccccc21 (stereo not shown) [Example 170]

>  <Discrete label>
Criterion not met

$$$$
>  <Compound>
CCNC(=O)c1cc(N(C)C)ccc1[Si](C)(C)C [Example 226]

>  <Discrete label>
Criterion met

$$$$
>  <Compound>
C#CCNC(=O)c1c(Cl)cccc1[Si](C)(C)C [Example 108]

>  <Discrete label>
Criterion met

$$$$
>  <Compound>
CC1CCCC(C)N1C(=O)c1c(Cl)cccc1[Si](C)(C)C (stereo not shown) [Example 131]

>  <Discrete label>
Criterion not met

$$$$
>  <Compound>
CC[C@@H](C)NC(=O)c1c(Cl)cccc1[Si](C)(C)C [Example 151]

>  <Discrete label>
Criterion met

$$$$
>  <Compound>
CCNC(=O)c1c(Cl)ccc(Br)c1[Si](C)(C)C [Example 232]

>  <Discrete label>
Criterion met

$$$$
>  <Compound>
C#CC(C)(C)NC(=O)c1c(Cl)cccc1[Si](C)(C)C [Example 107]

>  <Discrete label>
Criterion not met

$$$$
>  <Compound>
CCN(CC)C(=O)c1c(C)cccc1C(C)(C)C [Example 6]

>  <Discrete label>
Criterion not met

$$$$
>  <Compound>
CCN(CC)C(=O)c1c([Si](C)(C)C)coc1[Si](C)(C)C [Example 250]

>  <Discrete label>
Criterion not met

$$$$
>  <Compound>
CCNC(=O)c1c(Cl)cccc1[Si](C)(C)CBr [Example 210]

>  <Discrete label>
Criterion met

$$$$
>  <Compound>
CCN(CC)C(=O)c1cc(C)ccc1[Si](C)(C)C [Example 63]

>  <Discrete label>
Criterion not met

$$$$
>  <Compound>
CCN(C(=O)c1ccccc1C(C)(C)C)C(OC)C(C)(C)C (stereo not shown) [Example 186]

>  <Discrete label>
Criterion not met

$$$$
>  <Compound>
CCN(CC)C(=O)c1cccc(C)c1[Si](C)(C)C [Example 64]

>  <Discrete label>
Criterion not met

$$$$
>  <Compound>
CCN(CC)C(=O)c1c(CO)ccc(F)c1[Si](C)(C)C [Example 54]

>  <Discrete label>
Criterion not met

$$$$
>  <Compound>
C[Si](C)(C)c1cccc(Cl)c1C(=O)NCc1ccc2c(c1)OCO2 [Example 144]

>  <Discrete label>
Criterion not met

$$$$
>  <Compound>
CCNC(=O)c1c(Cl)cccc1C(C)(C)C [Example 285]

>  <Discrete label>
Criterion not met

$$$$
>  <Compound>
CCNC(=O)c1c([Si](C)(C)C)ccc(C(=O)OC)c1Cl [Example 244]

>  <Discrete label>
Criterion not met

$$$$
>  <Compound>
C[Si](C)(C)c1cc(Cl)sc1C(=O)NCCCl [Example 264]

>  <Discrete label>
Criterion met

$$$$
>  <Compound>
CCNC(=O)c1c(Cl)cccc1[Si](C)(C)C [Example 45]

>  <Discrete label>
Criterion met

$$$$
>  <Compound>
CCNC(=O)c1c(Cl)ccc(N(C)C)c1[Si](C)(C)C [Example 237]

>  <Discrete label>
Criterion met

$$$$
>  <Compound>
CCNC(=O)c1c(F)cccc1CC(C)(C)C [Example 93]

>  <Discrete label>
Criterion not met

$$$$
>  <Compound>
CCN(CC)C(=O)c1ccc(C)c(F)c1[Si](C)(C)C [Example 57]

>  <Discrete label>
Criterion not met

$$$$
>  <Compound>
CCCN(C(=O)c1c(Cl)cccc1[Si](C)(C)C)C(C)C [Example 95]

>  <Discrete label>
Criterion met

$$$$
>  <Compound>
CCN(C(=O)c1c(Cl)cccc1[Si](C)(C)C)C(C)C [Example 18]

>  <Discrete label>
Criterion not met

$$$$
>  <Compound>
CCNC(=O)c1c(Cl)cccc1[Si](C)(C)c1ccccc1 [Example 184]

>  <Discrete label>
Criterion not met

$$$$
>  <Compound>
CCNC(=O)c1ccccc1OC(C)(C)C [Example 247, N-Ethyl-2-(1,1-dimethylethoxy)benzamide]

>  <Discrete label>
Criterion not met

$$$$
>  <Compound>
CCNC(=O)c1c([Si](C)(C)C)ccc(C)c1Cl [Example 230]

>  <Discrete label>
Criterion met

$$$$
>  <Compound>
CCNC(=O)c1ccccc1[Si](C)(C)C [Example 49, N-Ethyl-2-(trimethylsilyl)benzamide]

>  <Discrete label>
Criterion met

$$$$
>  <Compound>
CCN(C(=O)c1cc(N(C)C)ccc1[Si](C)(C)C)C(OC)C(C)(C)C (stereo not shown) [Example 222]

>  <Discrete label>
Criterion not met

$$$$

====

Overview of reported inhibition at 1 ppm across a group of compounds:
System: Gaeumannomyces graminis var. tritici (Ggt)
Test: In vitro Assay: mycelial growth of Ggt on minimal media agar plates containing test compound
Format: cell-based
Conditions: Gaeumannomyces graminis; 1 ppm in minimal media agar; dark, 19-20° C., 4 to 5 days; diameter of mycelial growth; read-out: In vitro (ppm) 1, Percent Inhibition

>  <Compound>
CCNC(=O)c1c([Si](C)(C)C)ccc(C(F)F)c1Cl

>  <Relation sign>
=

>  <inhibition at 1 ppm [%]>
27

$$$$
>  <Compound>
CCN(CC)C(=O)c1c(C(=O)OC(C)C)ccc(F)c1[Si](C)(C)C

>  <Relation sign>
<

>  <inhibition at 1 ppm [%]>
0

$$$$
>  <Compound>
CCN(CC)C(=O)c1c([Si](C)(C)C)ccc(C)c1Cl

>  <Relation sign>
=

>  <inhibition at 1 ppm [%]>
56

$$$$
>  <Compound>
CCNC(=O)c1c(Cl)cccc1[Si](C)(C)C1CC2CCC1C2 (centres unmarked)

>  <Relation sign>
=

>  <inhibition at 1 ppm [%]>
35

$$$$
>  <Compound>
CCN(CC)C(=O)c1c(Cl)cccc1[Si](CC)(CC)CC

>  <Relation sign>
<

>  <inhibition at 1 ppm [%]>
0

$$$$

====

Tested on: Gaeumannomyces graminis var. tritici (Ggt)
Experiment: In vitro Assay: mycelial growth of Ggt on minimal media agar plates containing test compound
Type: cell-based
Conditions: Gaeumannomyces graminis; 0.1 ppm in minimal media agar; dark, 19-20° C., 4 to 5 days; diameter of mycelial growth; read-out: In vitro (ppm) 0.1, Percent Inhibition
inhibition at 0.1 ppm below 30% gives label 0; inhibition at 0.1 ppm at or above it gives label 1.

>  <Chemical smiles>
CCNC(=O)c1ccncc1[Si](C)(C)C

>  <Assayed target>
Gaeumannomyces graminis var. tritici (Ggt)

>  <Discrete label>
label 0

$$$$
>  <Chemical smiles>
CCN(C)C(=O)c1c(Cl)cccc1N(C)C(C)(C)C

>  <Assayed target>
Gaeumannomyces graminis var. tritici (Ggt)

>  <Discrete label>
label 0

$$$$
>  <Chemical smiles>
CCNC(=O)c1cccc(F)c1[Si](C)(C)C

>  <Assayed target>
Gaeumannomyces graminis var. tritici (Ggt)

>  <Discrete label>
label 0

$$$$
>  <Chemical smiles>
CCNC(=O)c1c(Br)cccc1[Si](C)(C)C

>  <Assayed target>
Gaeumannomyces graminis var. tritici (Ggt)

>  <Discrete label>
label 1

$$$$
>  <Chemical smiles>
C[Si](C)(C)c1cccc(Cl)c1C(=O)N1CCCCC1

>  <Assayed target>
Gaeumannomyces graminis var. tritici (Ggt)

>  <Discrete label>
label 0

$$$$
>  <Chemical smiles>
COc1ccc(CNC(=O)c2c(Cl)cccc2[Si](C)(C)C)cc1

>  <Assayed target>
Gaeumannomyces graminis var. tritici (Ggt)

>  <Discrete label>
label 0

$$$$
>  <Chemical smiles>
CCN(CC)C(=O)c1cccc(F)c1[Si](C)(C)C

>  <Assayed target>
Gaeumannomyces graminis var. tritici (Ggt)

>  <Discrete label>
label 0

$$$$
>  <Chemical smiles>
CCN(CC)C(=O)c1c(CF)ccc(F)c1[Si](C)(C)C

>  <Assayed target>
Gaeumannomyces graminis var. tritici (Ggt)

>  <Discrete label>
label 1

$$$$
>  <Chemical smiles>
C[Si](C)(C)c1cc(Cl)sc1C(=O)NCCO

>  <Assayed target>
Gaeumannomyces graminis var. tritici (Ggt)

>  <Discrete label>
label 0

$$$$
>  <Chemical smiles>
CSNC(=O)c1c(Cl)cccc1[Si](C)(C)C

>  <Assayed target>
Gaeumannomyces graminis var. tritici (Ggt)

>  <Discrete label>
label 0

$$$$
